measured.target: T1, MICA*004 expressed at the cell surface (human, UniProt Q29983 24-297)
T1 construct: also called C1R-MICA*004; C1R-MICA*04
T1 chain: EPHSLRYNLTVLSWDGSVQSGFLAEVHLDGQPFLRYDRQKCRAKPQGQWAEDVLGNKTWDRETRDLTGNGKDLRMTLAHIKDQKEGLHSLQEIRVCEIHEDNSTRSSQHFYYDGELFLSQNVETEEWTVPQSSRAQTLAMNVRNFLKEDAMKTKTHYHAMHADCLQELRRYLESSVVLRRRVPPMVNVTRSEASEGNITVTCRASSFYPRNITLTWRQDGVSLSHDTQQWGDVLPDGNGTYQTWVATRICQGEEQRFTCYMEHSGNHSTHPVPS
assay: flow cytometry on C1R transfectant cells, 4-parameter logistic fit
Reported EC50 is given for each of the following binders.
Could you give me the number in µg/mL? Just the number is fine.

CHG1-M-MIA-20C6 (antibody, V domains shown, also called chimeric anti-MICA 20C6) VH: QITLKESGPGILKPSQTLSLTCSFSGFSLSTSGMGVGWIRQPSGKGLEWLAHIWWDDDKYYNPSLKSQLTISKDTSRNQVFLRITSVDTADTATYYCARRTQGYFDYWGQGTTLTVSS VL: DIVMTQSPATLSVTPGDRVSLSCRASQSISDYLHWYQQKSHESPRLLIKYASQSISGIPSRFSGSGSGSDFTLSINSVEPEDVGVYYCQNGHSFPWTFGGGTKLEIKR	0.05
CHG1-M-MIA-18E8 (antibody, human IgG1, V domains shown, the VH entry ends with ASTK) VH: DVQLQESGPDLVNPSQSLSLICTVTGYSITSDYSWHWIRQFPGNKLEWMGNIHYSGRINYNPSLRSRISITRDTSKNQFFLQLISVTTEDTATYYCATRRTFGNFEDYWGQGTTLTVSS VL: QIVLSQSPATLSVSPGEKVTMTCRSSSSVNYMHWYQQKPGSSPKPWIYATSTLASGVPARFSGSGSGTSYSLTISRVEAEDAATYYCQQWSSNPLTFGAGTKLELK	0.15

Attention now turns to another entry.
Reported EC50 ( CHG1-M-MIA-15F9 (antibody, human IgG1, V domains shown, the VH entry ends with ASTK) VH: DVQLQESGPDLVKPSQSLSLTCTVTGYSITSGYSWHWIRQFPGNKLEWMGFIHYSGSTDYNPSLKSRISLTRDTSKNQFFLQLNSVSTEDTATYYCAKDYGHWYFDVWGAGTTVTVSS VL: SIVMTQTPKFLLVSAGDRVTITCKASQSVSYDVAWYQQKPGQSPKLLIFYASNRYTGVPARFTGSGYGTDFTFTISTVQAEDLAVYFCQQDYSSLTFGAGTKLELK ) = 0.43
